molecular target: μ-opioid receptor (Homo sapiens (Human)); assay: μ-opioid receptor [35S]GTPγS functional assay, HEK-293 or CHO cells; assay type: biochemical
readout: EC50

Here is how some molecules turned out for EC50.
| molecule | readout | measuredResult |
| --- | --- | --- |
| COC(=O)c1cc2c([nH]c1=O)C[C@]13CCN(CC4CC4)[C@H](Cc4ccc(OC)cc41)[C@]3(O)C2 [Compound 2] | EC50 | > 20 µM |
| NC(=O)c1cc2c([nH]c1=O)C[C@]13CCN(CC4CC4)[C@H](Cc4ccc(O)cc41)[C@@H]3C2 [Compound 7] | EC50 | > 20 µM |
| NC(=O)[C@@H]1CCCN1C(=O)c1cc2c([nH]c1=O)C[C@]13CCN(CC4CC4)[C@H](Cc4ccc(O)cc41)[C@@H]3C2 [Compound 25] | EC50 | 0.00487 µM |
| O=C(N[C@@H]1c2ccccc2C[C@@H]1O)c1cc2c([nH]c1=O)C[C@]13CCN(CC4CC4)[C@H](Cc4ccc(O)cc41)[C@@H]3C2 [Compound 61] | EC50 | > 20 µM |
| C[C@H](NC(=O)c1cc2c([nH]c1=O)C[C@]13CCN(CC4CC4)[C@H](Cc4ccc(O)cc41)[C@]3(O)C2)C(N)=O [Compound 16] | EC50 | 0.00644 µM |

For the next question, use this molecule.
Bench note: what EC50 did O=C(O)c1cc2c([nH]c1=O)C[C@]13CCN(CC4CC4)[C@H](Cc4ccc(O)cc41)[C@]3(O)C2 [Compound 9] show?
> 20 µM

----------
target: μ-opioid receptor (Homo sapiens (Human), UniProt P35372); assay: μ-opioid receptor [35S]GTPγS functional assay, HEK-293 or CHO cells; type: biochemical; conditions: relative to DAMGO; HEK-293 or CHO cells
Threshold check on Emax: strictly below 20% is Yes; on or above 20% is No.

| molecule | qualitativeLabel |
| --- | --- |
| O=C(c1cc2c([nH]c1=O)C[C@]13CCN(CC4CC4)[C@H](Cc4ccc(O)cc41)[C@@H]3C2)N1CCS(=O)(=O)CC1 [Compound 60] | Yes |
| C[C@H](NC(=O)c1cc2c([nH]c1=O)C[C@]13CCN(CC4CC4)[C@H](Cc4ccc(O)cc41)[C@@H]3C2)C(N)=O [Compound 22] | No |

Okay, now this molecule:
# check: Emax < 20% for NC(=O)c1cc2c([nH]c1=O)C[C@]13CCN(CCc4ccccc4)[C@H](Cc4ccc(O)cc41)[C@]3(O)C2 [Compound 37]
No

----------
molecular target: κ-opioid receptor (Homo sapiens (Human)); test: κ-opioid receptor radioligand dose-displacement binding assay ([3H]-U69,593); conditions: binding affinity, [3H]-U69,593 displacement
Mark 1 only for Ki values smaller than 1 nM; exact matches and larger values are 0.

Here's what some known entries look like.
| querySmiles | qualitativeLabel |
| --- | --- |
| COc1ccc2c(c1)[C@]13CCN(CC4CC4)[C@H](C2)[C@@H]1Cc1cc(C(=O)O)c(=O)[nH]c1C3 | 0 |
| NC(=O)[C@H](Cc1ccccc1)NC(=O)c1cc2c([nH]c1=O)C[C@]13CCN(CC4CC4)[C@H](Cc4ccc(O)cc41)[C@@H]3C2 | 1 |
| NC(=O)[C@@H]1CCCN1C(=O)c1cc2c([nH]c1=O)C[C@]13CCN(CC4CC4)[C@H](Cc4ccc(O)cc41)[C@]3(O)C2 | 1 |
| NC(=O)C[C@H](NC(=O)c1cc2c([nH]c1=O)C[C@]13CCN(CC4CC4)[C@H](Cc4ccc(O)cc41)[C@@H]3C2)C(N)=O | 1 |
| NC(=O)[C@H](Cc1ccccc1)NC(=O)c1cc2c([nH]c1=O)C[C@]13CCN(CC4CC4)[C@H](Cc4ccc(O)cc41)[C@]3(O)C2 | 1 |

Please state whether Ki is below 1 nM for "COc1ccc2c(c1)[C@]13CCN(CC4CC4)[C@H](C2)[C@]1(O)Cc1cc(C(N)=O)c(=O)[nH]c1C3"
0

Regarding "O=C(O)c1cc2c([nH]c1=O)C[C@]13CCN(CC4CC4)[C@H](Cc4ccc(O)cc41)[C@]3(O)C2" , kindly confirm whether its Ki is beneath 1 nM.
0

Answer whether the compound "C[C@H](NC(=O)c1cc2c([nH]c1=O)C[C@]13CCN(CC4CC4)[C@H](Cc4ccc(O)cc41)[C@]3(O)C2)C(N)=O" has Ki strictly less than 1 nM
0

In plain terms, does "COC(=O)c1cc2c([nH]c1=O)C[C@]13CCN(CC4CC4)[C@H](Cc4ccc(OC)cc41)[C@]3(O)C2" come in under 1 nM for Ki?
0

Ki under 1 nM? Item: "NC(=O)[C@@H]1CCCN1C(=O)c1cc2c([nH]c1=O)C[C@]13CCN(CC4CC4)[C@H](Cc4ccc(O)cc41)[C@@H]3C2"
1

# TODO verify Ki < 1 nM strictly for this compound: "COC(=O)c1cc2c([nH]c1=O)C[C@]13CCN(C)[C@H](Cc4ccc(OC)cc41)[C@]3(O)C2"
0

Hello, is Ki of the following compound strictly smaller than 1 nM? "COc1ccc2c(c1)[C@]13CCN(CC4CC4)[C@H](C2)[C@@H]1Cc1cc(C(N)=O)c(=O)[nH]c1C3"
0

Is Ki strictly under 1 nM for the entry "COc1ccc2c(c1)[C@]13CCN(C)[C@H](C2)[C@]1(O)Cc1cc(C(N)=O)c(=O)[nH]c1C3" ?
0

Identify whether the compound "COC(=O)c1cc2c([nH]c1=O)C[C@]13CCN(Cc4ccccc4)[C@H](Cc4ccc(OC)cc41)[C@]3(O)C2" records Ki below 1 nM.
0

Ki strictly < 1 nM for this compound? "NC(=O)c1cc2c([nH]c1=O)C[C@]13CCN(CC4CC4)[C@H](Cc4ccc(O)cc41)[C@@H]3C2"
1

Ki strictly < 1 nM for this compound? "CN1CC[C@]23Cc4[nH]c(=O)c(C(N)=O)cc4C[C@@]2(O)[C@H]1Cc1ccc(O)cc13"
0

Bench note: check whether "CC(C)C[C@H](NC(=O)c1cc2c([nH]c1=O)C[C@]13CCN(CC4CC4)[C@H](Cc4ccc(O)cc41)[C@]3(O)C2)C(N)=O" shows Ki below 1 nM
0

Identify whether the compound "NC(=O)C[C@H](NC(=O)c1cc2c([nH]c1=O)C[C@]13CCN(CC4CC4)[C@H](Cc4ccc(O)cc41)[C@]3(O)C2)C(N)=O" records Ki below 1 nM.
0

Is the reported Ki for "COc1ccc2c(c1)[C@]13CCN(Cc4ccccc4)[C@H](C2)[C@]1(O)Cc1cc(C(N)=O)c(=O)[nH]c1C3" strictly below 1 nM?
0

State whether 1 nM exceeds Ki recorded for "NC(=O)c1cc2c([nH]c1=O)C[C@]13CCN(CC4CC4)[C@H](Cc4ccc(O)cc41)[C@]3(O)C2" .
1

Here's an entry: "NC(=O)CNC(=O)c1cc2c([nH]c1=O)C[C@]13CCN(CC4CC4)[C@H](Cc4ccc(O)cc41)[C@]3(O)C2" . Is its Ki below 1 nM?
0

# check: Ki < 1 nM for "COc1ccc2c(c1)[C@]13CCN(CC4CC4)[C@H](C2)[C@]1(O)Cc1cc(C(=O)NCC(N)=O)c(=O)[nH]c1C3"
0

Find out if reported Ki for "COC(=O)c1cc2c([nH]c1=O)C[C@]13CCN(CC4CC4)[C@H](Cc4ccc(OC)cc41)[C@@H]3C2" is less than 1 nM
0

Regarding "O=C(O)c1cc2c([nH]c1=O)C[C@]13CCN(CC4CC4)[C@H](Cc4ccc(O)cc41)[C@@H]3C2" , kindly confirm whether its Ki is beneath 1 nM.
0

Lab note: confirm whether the reported Ki for this compound is below 1 nM, equality not counting. compound: "CC(C)C[C@H](NC(=O)c1cc2c([nH]c1=O)C[C@]13CCN(CC4CC4)[C@H](Cc4ccc(O)cc41)[C@@H]3C2)C(N)=O"
1
